- MEASURED_TARGET: phosphorylated FGFR3 (SEQ ID NO: 5, amino acids 449 to 759) (Homo sapiens (Human))
- Sequence (P22607 449-759): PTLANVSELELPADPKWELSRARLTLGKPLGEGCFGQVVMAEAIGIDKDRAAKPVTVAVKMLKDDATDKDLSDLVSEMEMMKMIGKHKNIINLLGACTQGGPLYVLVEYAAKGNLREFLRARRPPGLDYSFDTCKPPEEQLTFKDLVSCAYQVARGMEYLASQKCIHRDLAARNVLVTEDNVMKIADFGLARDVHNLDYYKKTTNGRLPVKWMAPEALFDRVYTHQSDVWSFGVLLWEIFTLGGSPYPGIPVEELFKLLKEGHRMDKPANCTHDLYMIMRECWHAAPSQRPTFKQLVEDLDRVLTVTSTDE
REPORTED_PROPERTY: IC50 (nM)

Take a look at these entries with their results.
C=CC(=O)Nc1ccc(C(=O)N2CCC[C@@H](n3cc(-c4cc(OC)c5c(C#N)cnn5c4)cn3)C2)cc1 [Example 23] | 54
COC/C=C/C(=O)N1CC(F)(C(=O)N2CCC(n3ncc(-c4cc(OC)c5c(C#N)cnn5c4)c3C)CC2)C1 [Example 154] | 19

[I] C=CC(=O)Nc1ccc(C(=O)N2CC[C@H](n3cc(-c4cc(OC)c5c(C#N)cnn5c4)cn3)C2)cc1OC [Example 71]
[II] C=CC(=O)N[C@H]1C[C@H](C(=O)N2CC(n3cc(-c4cc(OC)c5c(C#N)cnn5c4)cn3)C2)C1 [Example 79]
Dear colleague, could you let me know whether I or II has the lower recorded IC50? Thanks. Answer by stating the label of the chosen item. I

From: patent US12180207B2
